Tested on: GST-Bcl-2
assay details: TR-FRET binding assay, Bcl-2
protocol conditions: TR-FRET Ki values
Could you please classify the records by Binding selectivity ratio (Bcl-XL Ki/Bcl-2 Ki) using these ranges: class 1 = under 200, class 2 = from 200 up to 1000, class 3 = 1000 and over

Lab note: sort CN(C)CCOc1cccc(-c2ccc(Cl)cc2)c1CN1CCN(c2ccc(C(=O)NS(=O)(=O)c3ccc(NC4CCN(C)CC4)c([N+](=O)[O-])c3)c(Oc3cccc4[nH]ccc34)c2)CC1 into the matching Binding selectivity ratio (Bcl-XL Ki/Bcl-2 Ki) band.
class 2

# iterate: CC1(C)CCC(CN2CCN(c3ccc(C(=O)NS(=O)(=O)c4cnc(OCCN5CCOCC5)c(C#N)c4)c(Oc4cccc5[nH]ccc45)c3)CC2)=C(c2ccc(Cl)cc2)C1
class 2

What do you have for CN(C)CC#Cc1ccc(-c2ccc(Cl)cc2)c(CN2CCN(c3ccc(C(=O)NS(=O)(=O)c4ccc(NCC5CCOCC5)c([N+](=O)[O-])c4)c(Oc4cccc5[nH]ccc45)c3)CC2)c1 ?
class 3

Moving on to CN(C)CCOc1ccc(-c2ccc(Cl)cc2)c(CN2CCN(c3ccc(C(=O)NS(=O)(=O)c4ccc(NCC5CCOCC5)c([N+](=O)[O-])c4)c(Oc4cccc5[nH]ccc45)c3)CC2)c1
class 3

Now consider CN1CCN(CCNc2ccc(S(=O)(=O)NC(=O)c3ccc(N4CCN(CC5=C(c6ccc(Cl)cc6)CC(C)(C)CC5)CC4)cc3Oc3ccc4[nH]ccc4c3)cc2[N+](=O)[O-])CC1 .
class 2

Another: CN(C)CCCNc1ccc(S(=O)(=O)NC(=O)c2ccc(N3CCN(CC4=C(c5ccc(Cl)cc5)CCC(C)(C)C4)CC3)cc2Oc2cccc3[nH]ccc23)cc1[N+](=O)[O-]
class 1

Entry to check: CN(C)CC(=O)N1CCO[C@H](COc2ncc(S(=O)(=O)NC(=O)c3ccc(N4CCN(CC5=C(c6ccc(Cl)cc6)CC(C)(C)CC5)CC4)cc3Oc3cccc4[nH]ncc34)cc2Cl)C1
class 3

Consider next the molecule CC(C1=C(c2ccc(Cl)cc2)CC(C)(C)CC1)N1CCN(c2ccc(C(=O)NS(=O)(=O)c3ccc(NN4CCN(C)CC4)c([N+](=O)[O-])c3)c(Oc3ccc4[nH]ccc4c3)c2)CC1 (centres unmarked) in the same way.
class 2

# iterate: CN(C)CCOc1cccc(-c2ccc(Cl)cc2)c1CN1CCN(c2ccc(C(=O)NS(=O)(=O)c3ccc(NCC4CCOCC4)c([N+](=O)[O-])c3)c(Oc3ccccc3)c2)CC1
class 2

Try this molecule too: CC1(C)CCC(CN2CCN(c3ccc(C(=O)NS(=O)(=O)c4ccc(NCCCN5CCCC5)c([N+](=O)[O-])c4)c(Oc4cccc5[nH]ccc45)c3)CC2)=C(c2ccc(OC(F)(F)F)cc2)C1
class 1

Okay, and CC1(C)CCC(CN2CCN(c3ccc(C(=O)NS(=O)(=O)c4ccc(NC5CCS(=O)(=O)C5)c([N+](=O)[O-])c4)c(Oc4ccc5[nH]ccc5c4)c3)CC2)=C(c2ccc(Cl)cc2)C1 (centres unmarked) ?
class 3

Next: CC1(C)CCC(CN2CCN(c3ccc(C(=O)NS(=O)(=O)c4ccc(OC[C@@H]5COCCO5)c([N+](=O)[O-])c4)c(Oc4ccc5[nH]ccc5c4)c3)CC2)=C(c2ccc(Cl)cc2)C1
class 3

Similarly, CCN1CCCC1CNC(=O)c1cc(S(=O)(=O)NC(=O)c2ccc(N3CCN(Cc4ccccc4-c4ccc(Cl)cc4)CC3)cc2Oc2ccccc2)ccc1OC (centres unmarked) ?
class 1

Now this one: O=C(NS(=O)(=O)c1ccc(NCC2CCOCC2)c([N+](=O)[O-])c1)c1ccc(N2CCN(CC3=C(c4ccc(Cl)cc4)CCC(N4CCOCC4)C3)CC2)cc1Oc1ccc2[nH]ccc2c1 (centres unmarked)
class 3

Please answer likewise for O=C(NS(=O)(=O)c1ccc(NCC2CCOCC2)c([N+](=O)[O-])c1)c1ccc(N2CCN(Cc3ccccc3-c3ccc(Cl)cc3)CC2)cc1Oc1ccc2[nH]ccc2c1
class 3

----------
Test system: GST-Bcl-2
assay details: TR-FRET binding assay, Bcl-2
protocol conditions: TR-FRET Ki values
Protocol: Tb-anti-GST antibody was purchased from Invitrogen (Catalog No. PV4216). […] The samples were then mixed on a shaker for 1 minute and incubated for an additional 3 hours at room temperature. […] Fluorescence was measured on the Envision (Perkin Elmer) using a 340/35 nm excitation filter and 520/525 (F-Bak peptide) and 495/510 nm (Tb-labeled anti-Histidine antibody) emission filters. […]
Answer each item with its documented Binding selectivity ratio (Bcl-XL Ki/Bcl-2 Ki).
Lab note: write the figure by itself, no unit.

Returns the measured Binding selectivity ratio (Bcl-XL Ki/Bcl-2 Ki) for the input molecule. Input: CC(C1=C(c2ccc(Cl)cc2)CC(C)(C)CC1)N1CCN(c2ccc(C(=O)NS(=O)(=O)c3ccc(NCCCN4CCOCC4)c([N+](=O)[O-])c3)c(Oc3ccc4[nH]ccc4c3)c2)CC1 (stereo not shown)
100.2

Same thing, different molecule: CN1CCC(O)(CNc2ccc(S(=O)(=O)NC(=O)c3ccc(N4CCN(CC5=C(c6ccc(Cl)cc6)CC(C)(C)CC5)CC4)cc3Oc3ccc4[nH]ccc4c3)cc2[N+](=O)[O-])CC1
240.5

CN1CCC(Nc2ccc(S(=O)(=O)NC(=O)c3ccc(N4CCN(CC5=C(c6ccc(Cl)cc6)CC(C)(C)CC5)CC4)cc3Oc3ccccc3)cc2[N+](=O)[O-])CC1 , same question.
15.8

Lookup CC1(C)CCC(CN2CCN(c3ccc(C(=O)NS(=O)(=O)c4ccc(NC5CCN(CCCO)CC5)c([N+](=O)[O-])c4)c(Oc4ccc5[nH]ccc5c4)c3)CC2)=C(c2ccc(Cl)cc2)C1
193

Follow-up entry: CC1(C)CCC(CN2CCN(c3ccc(C(=O)NS(=O)(=O)c4cnc(NCC5(F)CCOCC5)c(Cl)c4)c(Oc4cccc5[nH]ncc45)c3)CC2)=C(c2ccc(Cl)cc2)C1
803.8

----------
System: GST-Bcl-2
assay details: TR-FRET binding assay, Bcl-2
protocol conditions: TR-FRET Ki values
readout type: Binding selectivity ratio (Bcl-XL Ki/Bcl-2 Ki)
# answer = number (no unit)

State its Binding selectivity ratio (Bcl-XL Ki/Bcl-2 Ki) on GST-Bcl-2: CO[C@H]1CC[C@@H](CNc2ccc(S(=O)(=O)NC(=O)c3ccc(N4CCN(CC5=C(c6ccc(Cl)cc6)CC(C)(C)CC5)CC4)cc3Oc3ccc4[nH]ccc4c3)cc2[N+](=O)[O-])CC1 [EXAMPLE 313]
1500

Check CN(C)CCCNc1ccc(S(=O)(=O)NC(=O)c2ccc(N3CCN(CC4=C(c5ccc(Cl)cc5)CC(C)(C)CC4)CC3)cc2Oc2ccc3[nH]ccc3c2)cc1C#N [Example 172] too.
32.1

----------
System: GST-Bcl-2
assay details: TR-FRET binding assay, Bcl-2
protocol conditions: TR-FRET Ki values
Procedure: Tb-anti-GST antibody was purchased from Invitrogen (Catalog No. PV4216). […] The samples were then mixed on a shaker for 1 minute and incubated for an additional 3 hours at room temperature. […] Fluorescence was measured on the Envision (Perkin Elmer) using a 340/35 nm excitation filter and 520/525 (F-Bak peptide) and 495/510 nm (Tb-labeled anti-Histidine antibody) emission filters. […]
readout type: Binding selectivity ratio (Bcl-XL Ki/Bcl-2 Ki)

So what's the measured Binding selectivity ratio (Bcl-XL Ki/Bcl-2 Ki) for this one? CC1(C)CCC(CN2CCN(c3ccc(C(=O)NS(=O)(=O)c4ccc(C(=O)NCC5CCOCC5)cc4)c(Oc4ccc5[nH]ccc5c4)c3)CC2)=C(c2ccc(Cl)cc2)C1 [EXAMPLE 308]
>11.5

Could you do the same for O=C(NS(=O)(=O)c1ccc(NCCCN2CCCC2)c([N+](=O)[O-])c1)c1ccc(N2CCN(CC3=C(c4ccc(Cl)cc4)CCCCC3)CC2)cc1Oc1cccc2[nH]ccc12 [Example 141] , please?
42.6

Please do the same for O=C(NS(=O)(=O)c1ccc(NCCCN2CCOCC2)c([N+](=O)[O-])c1)c1ccc(N2CCN(Cc3ccccc3-c3ccc(Cl)cc3)CC2)cc1Oc1ccccc1 [Example 155] as well.
77.8

----------
Hi there, I'd appreciate the recorded Binding selectivity ratio (Bcl-XL Ki/Bcl-2 Ki) for every entry that follows.
Test system: GST-Bcl-2
assay details: TR-FRET binding assay, Bcl-2
protocol conditions: TR-FRET Ki values
Format: numeric value only, no unit, no commentary.

What Binding selectivity ratio (Bcl-XL Ki/Bcl-2 Ki) value was documented for this molecule, CC1(C)CCC(CN2CCN(c3ccc(C(=O)NS(=O)(=O)c4ccc(OCC5(F)CCOCC5)c([N+](=O)[O-])c4)c(Oc4ccc5[nH]ccc5c4)c3)CC2)=C(c2ccc(Cl)cc2)C1 ?
3035.4

Also COCCN1CCC(Nc2ccc(S(=O)(=O)NC(=O)c3ccc(N4CCN(CC5=C(c6ccc(Cl)cc6)CC(C)(C)CC5)CC4)cc3Oc3ccc4[nH]ccc4c3)cc2[N+](=O)[O-])CC1 ?
358.6

Same lookup for CC1(C)CCC(c2ccc(Cl)cc2)=C(CN2CCN(c3ccc(C(=O)NS(=O)(=O)c4ccc(NCCCN5CCOCC5)c([N+](=O)[O-])c4)c(Oc4cccc5[nH]ccc45)c3)CC2)C1 , please.
108.3

Same thing, different molecule: CC1(C)CCC(CN2CCN(c3ccc(C(=O)NS(=O)(=O)c4ccc(NCCCN5CCOCC5)c([N+](=O)[O-])c4)c(Oc4ccc5c(c4)CCCN5)c3)CC2)=C(c2ccc(Cl)cc2)C1
20.2

COCCOCCSc1ccc(S(=O)(=O)NC(=O)c2ccc(N3CCN(CC4=C(c5ccc(Cl)cc5)CC(C)(C)CC4)CC3)cc2Oc2cccc3[nH]ccc23)cc1[N+](=O)[O-] , same question.
448.3

Same read-out for CN1CCN(CCNc2ccc(S(=O)(=O)NC(=O)c3ccc(N4CCN(CC5=C(c6ccc(Cl)cc6)CC(C)(C)CC5)CC4)cc3Oc3cccc4[nH]ccc34)cc2[N+](=O)[O-])CC1 ?
121.2

Item: CC1(C)CCC(CN2CCN(c3ccc(C(=O)NS(=O)(=O)c4ccc(NCCCn5ccnc5)c([N+](=O)[O-])c4)c(Oc4ccc5[nH]ccc5c4)c3)CC2)=C(c2ccc(Cl)cc2)C1
2317.4

Field entry: CN(C)CCOc1cccc(-c2ccc(Cl)cc2)c1CN1CCN(c2ccc(C(=O)NS(=O)(=O)c3ccc(NCCCN4CCCC4)c([N+](=O)[O-])c3)c(Oc3ccc4[nH]ccc4c3)c2)CC1
347.1

// same read-out, input: CC1(C)CCC(CN2CCN(c3ccc(C(=O)NS(=O)(=O)c4cnc(NC5CCN(C6CC6)CC5)c(Cl)c4)c(Oc4cccc5[nH]ncc45)c3)CC2)=C(c2ccc(Cl)cc2)C1
3119
